The origin of these recorded values is patent US20030148958A1.

# assayed_target: T1, corticotropin releasing factor 2 receptor; also: reference of the scale not given here
# T1 sequence (Q13324 whole entry, species assumed, looked up): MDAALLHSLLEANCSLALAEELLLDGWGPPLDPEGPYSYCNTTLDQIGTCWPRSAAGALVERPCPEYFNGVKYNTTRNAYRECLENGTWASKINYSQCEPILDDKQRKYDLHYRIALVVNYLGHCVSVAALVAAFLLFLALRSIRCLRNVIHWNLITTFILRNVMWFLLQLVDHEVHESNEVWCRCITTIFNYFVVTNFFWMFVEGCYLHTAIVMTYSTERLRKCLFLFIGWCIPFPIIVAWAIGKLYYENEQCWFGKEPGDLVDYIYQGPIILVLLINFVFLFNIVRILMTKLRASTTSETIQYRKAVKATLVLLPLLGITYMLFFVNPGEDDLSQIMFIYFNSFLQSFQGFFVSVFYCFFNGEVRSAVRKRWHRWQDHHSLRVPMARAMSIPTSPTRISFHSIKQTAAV
# assay_comment: cell-based or functional assay
Ends that are not written are not given here.
Reported CRF2R Emax by item:
property: CRF2R Emax (%)

binder: ZGPPISIDLPFQLLRKMIEIEKQEKEKQQATTNARLLATV (C-terminal amide) [SEQ ID NO 21]
uom: %
recorded_number: 96

binder: ZGPPISIDLPFLLLRKMIEIEKQEKEKQQAANNRLLLDTI (C-terminal amide) [SEQ ID NO 191]
uom: %
recorded_number: 100

binder: IVLSLDVPIGLLQILIEIEKQEKEKQQAATTNARILARV-NH2 [SEQ ID NO 168]
uom: %
recorded_number: 75

binder: ZGPPISIDLPLELLRKMIEIEKQEKEKQQAANNRLLLDTI (C-terminal amide) [SEQ ID NO 82]
uom: %
recorded_number: 90

binder: ZGPPISIDLPTFLLRKMIEIEKQEKEKQQAANNRLLLDTI (C-terminal amide) [SEQ ID NO 44]
uom: %
recorded_number: 87

binder: SQEPPISLDLPTELLREVLEMTKADQLAQQAHSNRKIIDIA-NH2 [SEQ ID NO 92]
uom: %
recorded_number: 15.8
